# target-of-assay: T1, human BLyS (full length, arginine to histidine at position 132) on CHO-K1 cells (human, UniProt Q9Y275 1-285)
# T1 construct: also called hBLyS; CHO-K1 hBLyS
# T1 sequence (Q9Y275 whole entry R130H): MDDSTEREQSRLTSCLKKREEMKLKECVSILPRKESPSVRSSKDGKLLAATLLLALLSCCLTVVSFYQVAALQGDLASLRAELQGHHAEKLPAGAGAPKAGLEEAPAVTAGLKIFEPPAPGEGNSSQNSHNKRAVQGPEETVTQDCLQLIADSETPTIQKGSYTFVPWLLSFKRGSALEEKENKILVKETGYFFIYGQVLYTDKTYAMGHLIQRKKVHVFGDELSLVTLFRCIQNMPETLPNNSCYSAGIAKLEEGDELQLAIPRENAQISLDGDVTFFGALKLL
# measurement-notes: flow cytometry, CHO-K1 hBLyS cells, antibody 66.7 nM
Entries annotated with measured MFI

binder: L9G7 (antibody, V domains shown, From a human naive scFv phage library; also called human BLyS antibody L9G7) VH: QIQLVQSGAEVKKPGASVKVSCKASGYTFTSYGISWVRQAPGQGLEWMGWISAYNGNTNYAQKLQGRVTMTTDTSTSTAYMELRSLRSDDTAVYYCARTYYDILTGYYYYGMDVWGQGTTVTVSS VL: EIVLTQSPGTLSLSPGERATLSCRTSQSVDTYLAWYQQKPGQAPRLLIYDASNRATGIPARFSGSGSGTDFTLTISSLEPEDFAVYYCQQRSNWPLTFGGGTKVEIK
MFI: 697 MFI

binder: L1D12 (antibody, V domains shown, From a human naive scFv phage library; also called human BLyS antibody L1D12; LID12) VH: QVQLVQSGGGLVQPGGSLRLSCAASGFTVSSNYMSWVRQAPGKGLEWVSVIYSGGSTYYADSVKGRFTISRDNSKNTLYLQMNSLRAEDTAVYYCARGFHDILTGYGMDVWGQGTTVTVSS VL: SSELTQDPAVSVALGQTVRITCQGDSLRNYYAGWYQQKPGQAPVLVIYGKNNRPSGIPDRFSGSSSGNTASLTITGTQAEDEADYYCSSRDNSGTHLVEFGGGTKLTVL
MFI: 550 MFI
